Data origin: ChEMBL document CHEMBL1154953

Heads up, these compounds all have Ki values measured for Glycogen synthase kinase-3 beta (Homo sapiens, UniProt P49841).
State the answer as a number, implicitly in nM.

# Ki (compound: "COc1ccncc1C1=NNC(=O)/C1=N\Nc1cccnc1" ) is 23

Data point: "COc1ccc(N/N=C2\C(=O)NN=C2c2cccnc2)cc1" ; Ki = 20

Reported Ki of "COc1ccc(C2=NNC(=O)/C2=N\Nc2cccc(Cl)c2)cc1OC" : 0.4

###

metric: Ki
Respond with the figure and its unit, in that order.

The observed Ki for "COc1ccncc1C1=NNC(=O)/C1=N\Nc1ccccc1" when tested with UniProt:Q9NWZ3 stands at 1.1 µM

###

This section lists log10 Ki readings for Glycogen synthase kinase-3 beta (Homo sapiens).
Use the decimal logarithm of Ki (nM).

For reference, reported log10 Ki for "O=C1NN=C(c2ccccc2)/C1=N/Nc1ccc(Cl)cc1" stands at 1.36

# log10 Ki of "COc1cccc(N/N=C2\C(=O)NN=C2c2cccc(OC)c2)c1" = 0.70

Lab note: "COc1ccccc1N/N=C1\C(=O)NN=C1c1cnccc1OC" gave log10 Ki of 2.43

Reported log10 Ki for "COc1ccc(C2=NNC(=O)/C2=N\Nc2ccccc2Cl)cc1OC" was 1.64

Summary for this compound, "COc1ccncc1C1=NNC(=O)/C1=N\Nc1ccc(Cl)cc1" : log10 Ki is 0.48

log10 Ki reading for "COc1ccc(C2=NNC(=O)/C2=N\Nc2cccc(OC)c2)cc1" : -0.10

// sample "O=C1NN=C(c2ccncc2)/C1=N/Nc1ccccc1Cl" , its log10 Ki was 2.40

Consider "COc1ccc(N/N=C2\C(=O)NN=C2c2cccc(OC)c2)cc1" . Its measured log10 Ki is 1.26

Reported log10 Ki for "COc1ccc(N/N=C2\C(=O)NN=C2c2cc(OC)c(OC)c(OC)c2)cc1" was 0.95

Briefly, log10 Ki measured for "COc1ccncc1C1=NNC(=O)/C1=N\Nc1ccc(C(=O)O)cc1" : 0.89

Data point: "COc1ccc(C2=NNC(=O)/C2=N\Nc2ccc(N3CCOCC3)cc2)cc1" ; log10 Ki = 0.90

So for "O=C1NN=C(c2cccnc2)/C1=N/Nc1ccccc1Cl" , the logged log10 Ki turned out to be 2.30

Reported log10 Ki ( "COc1ccncc1C1=NNC(=O)/C1=N\Nc1ccc(C#N)cc1" ) = 0.92

// recorded log10 Ki for "COc1cccc(N/N=C2\C(=O)NN=C2c2cnccc2OC)c1" : 0.57

So for "COc1ccncc1C1=NNC(=O)/C1=N\Nc1ccccc1" , the logged log10 Ki turned out to be 0.65

Sample "COc1cccc(C2=NNC(=O)/C2=N\Nc2ccccc2)c1" ; log10 Ki observed: 1.59

Briefly, log10 Ki measured for "CC1=NNC(=O)/C1=N\Nc1ccccc1Cl" : 2.66

The reported value for "O=C1NN=C(c2ccccc2)/C1=N/Nc1cccc(Cl)c1" in terms of log10 Ki is 2.08

// field: log10 Ki; key: "COc1ccc(C2=NNC(=O)/C2=N\Nc2ccc(N(C)C)cc2)cc1" ; value = 2.04

So for "COc1ccc(C2=NNC(=O)/C2=N\Nc2ccc(Cl)cc2)cc1" , the logged log10 Ki turned out to be 0.30

// log10 Ki value for "COc1ccc(C2=NNC(=O)/C2=N\Nc2ccc(N3CCOCC3)cc2)cc1OC" : 0.48

log10 Ki reported for this compound "COc1ccncc1C1=NNC(=O)/C1=N\Nc1ccncc1" : 1.20

log10 Ki for "COc1cccc(N/N=C2\C(=O)NN=C2c2ccccc2)c1" is 1.54
